# Test system: foxtail, giant (giant foxtail, Setaria faberii)
# PROTOCOL_SUMMARY: Test C greenhouse herbicide test, pre- and postemergence
# Format: in vivo
# CONDITION: Postemergence, 125 g ai/ha; scale 0 to 100, 0 is no effect, 100 is complete control
# Excerpt: […]
Use met when the recorded Plant response rating, Foxtail, Giant is no lower than 70; use not met when it is lower.

1) CC(=O)Oc1c(C)nn(C)c(=O)c1-c1c(C)oc2ccc(C)cc12	not met
2) C#CCOC(=O)Oc1c(C)nn(C)c(=O)c1-c1c(C)sc2ccc(C)cc12	met
3) Cc1ccc2ccccc2c1-c1c(O)cnn(C)c1=O	not met
4) CCC(=O)Oc1c(C)nn(C)c(=O)c1-c1c(C)sc2c(C)cc(C)cc12	met

----------
# Test system: oat, wild (wild oat, Avena fatua)
# PROTOCOL_SUMMARY: Test D controlled growth environment herbicide test, pre- and postemergence
# Format: in vivo
# CONDITION: Postemergence, 125 g ai/ha; visual rating on scale 0 (no effect) to 100 (complete control), 14 to 21 d
# From the text: […]
PROPERTY: Plant response rating, Oat, Wild

1. Cc1ccc2sc(C)c(-c3c(O)c(C)nn(C)c3=O)c2c1 [Compound 1]	80
2. CC(=O)Oc1c(C)nn(C)c(=O)c1-c1c(C)sc2ccc(C)cc12 [Compound 25]	90
3. Cc1ccc2ccc(C)c(-c3c(O)c(C)nn(C)c3=O)c2c1 [Compound 60]	95
4. COC(=O)Oc1c(C)nn(C)c(=O)c1-c1c(C)sc2c(C)cc(C)cc12 [Compound 81]	95

----------
# System: blackgrass (Alopecurus myosuroides)
# PROTOCOL_SUMMARY: Test C greenhouse herbicide test, pre- and postemergence
# Format: in vivo
# CONDITION: Preemergence, 31 g ai/ha; scale 0 to 100, 0 is no effect, 100 is complete control
# maps each entry to its Plant response rating, Blackgrass
PROPERTY: Plant response rating, Blackgrass

1. CCOC(=O)Oc1c(C)nn(C)c(=O)c1-c1c(C)ccc2ccccc12	50
2. C#CCOC(=O)Oc1c(C)nn(C)c(=O)c1-c1c(C)sc2ccc(C)cc12	40
3. COC(=O)Oc1c(C)nn(C)c(=O)c1-c1c(C)sc2c(C)cc(C)cc12	60

----------
# System: pigweed (Amaranthus retroflexus)
# PROTOCOL_SUMMARY: Test A greenhouse herbicide test, pre- and postemergence
# Assay type: in vivo
# CONDITION: Preemergence, 125 g ai/ha; 0 to 100 scale where 0 is no effect and 100 is complete control
PROPERTY: Pigweed plant response rating

1) CCOC(=O)Oc1c(C)nn(C)c(=O)c1-c1c(C)sc2c(C)cc(C)cc12	100
2) COc1nn(C)c(=O)c(-c2c(C)ccc3ccccc23)c1OC(C)=O	100
3) CCC(=O)Oc1c(Cl)nn(C)c(=O)c1-c1c(C)sc2ccc(Cl)cc12	90
4) CCCC(=O)Oc1c(C)nn(C)c(=O)c1-c1c(C)sc2c(C)cc(C)cc12	100

----------
# Test system: kochia (Kochia scoparia)
# PROTOCOL_SUMMARY: Test A greenhouse herbicide test, pre- and postemergence
# Assay type: in vivo
# CONDITION: Preemergence, 500 g ai/ha; 0 to 100 scale, 0 no effect, 100 complete control
PROPERTY: Plant response rating, Kochia

1) Cc1ccc(-c2c(O)cnn(C)c2=O)c2ccccc12	0
2) Cc1cc(C)c2sc(C)c(-c3c(OC(=O)C(C)(C)C)c(C)nn(C)c3=O)c2c1	20
3) Cc1nn(C)c(=O)c(-c2c(C)sc3ccccc23)c1O	90
4) CCC(=O)Oc1c(C)nn(C)c(=O)c1-c1c(C)sc2c(C)cc(C)cc12	90
5) COc1nn(C)c(=O)c(-c2cccc3ccccc23)c1O	100
6) Cc1cc(C)c2c(-c3c(OC(=O)C(C)(C)C)c(C)nn(C)c3=O)c(C)sc2c1	0
7) COc1nn(C)c(=O)c(-c2c(C)ccc3ccccc23)c1O	100
8) COc1ccc2ccccc2c1-c1c(O)c(C)nn(C)c1=O	80
9) Cc1ccc2ccccc2c1-c1c(O)cnn(C)c1=O	90
